Target: UniProt P28222
Sequence (P28222 whole entry): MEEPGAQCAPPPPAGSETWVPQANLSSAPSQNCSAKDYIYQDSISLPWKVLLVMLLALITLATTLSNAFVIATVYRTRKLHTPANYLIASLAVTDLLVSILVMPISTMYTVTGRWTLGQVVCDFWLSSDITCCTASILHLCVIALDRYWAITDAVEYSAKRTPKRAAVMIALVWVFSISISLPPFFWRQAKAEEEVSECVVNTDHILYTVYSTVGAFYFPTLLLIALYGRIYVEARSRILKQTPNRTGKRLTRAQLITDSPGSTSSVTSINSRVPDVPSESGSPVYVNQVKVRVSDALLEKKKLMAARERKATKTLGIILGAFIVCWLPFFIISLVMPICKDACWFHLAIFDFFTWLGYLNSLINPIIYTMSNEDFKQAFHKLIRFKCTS
Assay: Binding affinity in CHO-K1 cells transfected with human recombinant 5-hydroxytryptamine 1B receptor
Endpoint Name: log10(IC50) (log10 of the value in µM)

- N[C@H]1C[C@H](c2c[nH]c3ccc(CC4COC(=O)N4)cc32)C1 (stereo in doubt; 23): -1.74
- CN(C)[C@H]1C[C@H](c2c[nH]c3ccc(CC4COC(=O)N4)cc32)C1 (stereo in doubt; 1): -0.95
- Cc1noc(-c2ccc3[nH]cc([C@H]4C[C@H](N(C)C)C4)c3c2)n1: -0.08
- Cc1noc(Cc2ccc3[nH]cc([C@H]4C[C@H](N(C)C)C4)c3c2)n1: 0.18
- CN(C)[C@H]1C[C@H](c2c[nH]c3ccc(CC(=O)NCc4ccccc4)cc32)C1: -0.58
- CN1C(=O)OCC1Cc1ccc2[nH]cc([C@H]3C[C@H](N(C)C)C3)c2c1 (stereo in doubt; 30): -0.69
- CN(C)[C@H]1C[C@H](c2c[nH]c3ccc(Oc4ccccc4)cc32)C1: -1.01
- CN(C)[C@H]1C[C@H](c2c[nH]c3ccc(CN4C(=O)NC(C)(C)C4=O)cc32)C1: 0.58
- CN[C@H]1C[C@H](c2c[nH]c3ccc(CC4COC(=O)N4)cc32)C1 (stereo partly drawn): -1.49
- CNS(=O)(=O)Cc1ccc2[nH]cc([C@H]3C[C@H](N(C)C)C3)c2c1: -0.56
- CN(C)[C@H]1C[C@H](c2c[nH]c3ccc(CCN4C(=O)NC(C)(C)C4=O)cc32)C1: 0.08
- CC1(C)NC(=O)N(CCc2ccc3[nH]cc([C@H]4C[C@H](N)C4)c3c2)C1=O: 0.05
- CN(C)[C@H]1C[C@H](c2c[nH]c3ccc(C(=O)NCc4ccccc4)cc32)C1: -0.50
